Trimeric HA Binding: RLU reference
Target: recombinant soluble homotrimeric HA of A/common magpie/Hong Kong/5052/07 (H5N1) (Influenza A virus A/common magpie/Hong Kong/5052/2007(H5N1))
Experiment: trimeric HA microarray, transfection supernatant set 4
Conditions: remark: other sources report otherwise
readout: Trimeric HA Binding: RLU

binder	reported
TCN-534 (5249_B02) (antibody, V domains shown) VH: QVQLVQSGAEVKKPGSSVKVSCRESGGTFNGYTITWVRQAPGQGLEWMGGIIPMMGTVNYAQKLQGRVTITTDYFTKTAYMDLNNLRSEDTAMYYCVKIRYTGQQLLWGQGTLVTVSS VL: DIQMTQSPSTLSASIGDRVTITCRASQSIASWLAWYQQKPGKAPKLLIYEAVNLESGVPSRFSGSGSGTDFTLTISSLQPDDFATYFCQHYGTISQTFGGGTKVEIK	127 RLU
TCN-535 (5246_P19) (antibody, V domains shown) VH: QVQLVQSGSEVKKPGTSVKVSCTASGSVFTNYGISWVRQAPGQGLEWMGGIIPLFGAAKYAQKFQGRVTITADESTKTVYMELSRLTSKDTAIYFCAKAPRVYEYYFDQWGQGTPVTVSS VL: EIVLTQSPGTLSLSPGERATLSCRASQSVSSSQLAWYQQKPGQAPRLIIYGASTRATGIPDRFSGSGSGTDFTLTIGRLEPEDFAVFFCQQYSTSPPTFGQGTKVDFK	477 RLU
TCN-523 (5248_A17) (antibody, V domains shown) VH: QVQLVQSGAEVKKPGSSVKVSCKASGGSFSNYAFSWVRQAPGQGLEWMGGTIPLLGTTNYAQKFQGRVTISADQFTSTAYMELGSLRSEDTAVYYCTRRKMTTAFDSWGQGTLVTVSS VL: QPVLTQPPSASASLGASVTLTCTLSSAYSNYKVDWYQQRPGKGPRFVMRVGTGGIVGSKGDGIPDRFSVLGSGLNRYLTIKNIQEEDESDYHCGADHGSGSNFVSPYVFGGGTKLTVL	2130 RLU
TCN-504 (3251_K17) (antibody, V domains shown) VH: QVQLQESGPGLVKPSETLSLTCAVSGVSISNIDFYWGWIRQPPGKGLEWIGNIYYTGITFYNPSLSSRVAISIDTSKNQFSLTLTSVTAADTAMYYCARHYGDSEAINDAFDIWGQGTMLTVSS VL: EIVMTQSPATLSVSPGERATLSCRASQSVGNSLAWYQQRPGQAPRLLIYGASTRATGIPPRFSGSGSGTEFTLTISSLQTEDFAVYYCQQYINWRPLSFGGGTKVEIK	8680 RLU
TCN-536 (5095_N01) (antibody, V domains shown) VH: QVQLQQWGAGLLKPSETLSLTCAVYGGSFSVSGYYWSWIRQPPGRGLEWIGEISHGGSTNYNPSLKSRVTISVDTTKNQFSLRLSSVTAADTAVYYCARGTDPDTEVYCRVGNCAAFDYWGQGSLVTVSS VL: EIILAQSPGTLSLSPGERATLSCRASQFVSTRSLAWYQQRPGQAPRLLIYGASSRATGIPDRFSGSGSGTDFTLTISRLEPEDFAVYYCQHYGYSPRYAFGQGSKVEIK	27 RLU
